Source: patent US20220348651A1

Listing of entries alongside the reported log10 of kd.
biological target: cynomologus (cyno) ENTPD2; experiment: Biacore (SPR) affinity to cyno ENTPD2 ECD; type: binding, cynomolgus monkey; conditions: 25° C.
Sequence (as listed by the source): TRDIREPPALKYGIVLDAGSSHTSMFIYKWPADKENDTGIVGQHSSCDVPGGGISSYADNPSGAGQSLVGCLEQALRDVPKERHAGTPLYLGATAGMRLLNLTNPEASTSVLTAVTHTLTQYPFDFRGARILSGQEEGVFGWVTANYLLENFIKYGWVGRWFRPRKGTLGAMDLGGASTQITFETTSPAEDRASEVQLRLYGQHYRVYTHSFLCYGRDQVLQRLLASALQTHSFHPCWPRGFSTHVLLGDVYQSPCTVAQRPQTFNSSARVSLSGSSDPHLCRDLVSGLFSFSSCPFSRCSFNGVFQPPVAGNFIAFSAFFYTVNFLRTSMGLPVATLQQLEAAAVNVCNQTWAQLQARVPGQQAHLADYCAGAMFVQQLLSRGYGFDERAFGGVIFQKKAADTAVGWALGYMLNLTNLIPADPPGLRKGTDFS
The figures below represent log10 of kd, where kd is stated in s⁻¹.

# example entries with known answers
mAb7: humanized anti-human ENTPD2 antibody from mAb17; VH SEQ ID NO: 25, VL SEQ ID NO: 78 (antibody, V domains shown) VH: QVQLVQSGAEVVKPGASVKISCKASGYTFTDYNMDWVKQAPGQRLEWIGDINPKYDISTYNQQFKGKATITVDKSASTAYMELSSLRSEDTAVYYCARRGFFLYYGINYYYFDVWGQGTLVTVSS VL: EIVLTQSPATLSASPGEEITLSCSASSSVSYIHWYQQKPGQAPRLLIYSTSNLASGIPARFSGSGSGTFYTLTISSVEPEDAAVYYCHQWSSYPWTFGGGTKLEIK | -2.92
mAb4: humanized anti-human ENTPD2 antibody from mAb16; VH SEQ ID NO: 46, VL SEQ ID NO: 57 (antibody, V domains shown) VH: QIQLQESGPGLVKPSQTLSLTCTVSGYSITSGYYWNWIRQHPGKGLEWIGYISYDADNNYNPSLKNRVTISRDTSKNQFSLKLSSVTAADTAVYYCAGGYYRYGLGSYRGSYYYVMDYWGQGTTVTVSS VL: ETVLTQSPATLSVSPGERATISCKASQSVDYEGHSYMNWYQQKPGQAPRLLIYAASNLESGIPARFSGSGSGTDFTLTISSVEPEDAATYYCQQSNEDPPTFGGGTKLEIK | -2.24

Q: Complete the entry with log10 of kd for mAb10: anti-human ENTPD2 antibody of Table 1; VH SEQ ID NO: 132, VL SEQ ID NO: 125 (antibody, V domains shown) VH: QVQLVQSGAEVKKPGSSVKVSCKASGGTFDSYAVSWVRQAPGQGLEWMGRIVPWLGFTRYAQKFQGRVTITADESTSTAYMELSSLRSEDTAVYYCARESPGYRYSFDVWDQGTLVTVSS VL: SYELTQPLSVSVALGQTARITCSGDAIGEKYVYWYQQKPGQAPVLVIYDDNNRPSGIPERFSGSNSGNTATLTISRAQAGDEADYYCASYDLQQARWVFGGGTKLTVL
A: -1.74

Q: Give me measured log10 of kd, please, for this molecule: mAb8: anti-human ENTPD2 antibody of Table 1; VH SEQ ID NO: 91, VL SEQ ID NO: 102 (antibody, V domains shown) VH: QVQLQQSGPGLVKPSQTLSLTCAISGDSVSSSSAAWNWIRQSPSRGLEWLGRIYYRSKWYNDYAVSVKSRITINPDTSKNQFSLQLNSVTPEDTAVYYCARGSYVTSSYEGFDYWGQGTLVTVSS VL: SYELTQPLSVSVALGQTARITCSGDNLPEKYAYWYQQKPGQAPVLVIYDDNKRPSGIPERFSGSNSGNTATLTISRAQAGDEADYYCQSYGKWGWTWVFGGGTKLTVL
A: -1.62

Q: Answer with reported log10 of kd of mAb6: humanized anti-human ENTPD2 antibody from mAb16; VH SEQ ID NO: 70, VL SEQ ID NO: 74 (antibody, V domains shown) VH: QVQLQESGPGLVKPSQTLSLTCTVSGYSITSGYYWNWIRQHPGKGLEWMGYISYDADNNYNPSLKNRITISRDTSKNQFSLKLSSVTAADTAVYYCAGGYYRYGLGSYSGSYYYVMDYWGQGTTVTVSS VL: DTQMTQSPSSLSVSVGDRATITCKASQSVDYEGHSYMNWYQQKPGKAPKLLIYAASNLESGVPSRFSGSGSGTDFTLTISSVQPEDFATYYCQQSNEDPPTFGGGTKLEIK
A: -2.00

Q: Using the record for mAb9: anti-human ENTPD2 antibody of Table 1; VH SEQ ID NO: 115, VL SEQ ID NO: 125 (antibody, V domains shown) VH: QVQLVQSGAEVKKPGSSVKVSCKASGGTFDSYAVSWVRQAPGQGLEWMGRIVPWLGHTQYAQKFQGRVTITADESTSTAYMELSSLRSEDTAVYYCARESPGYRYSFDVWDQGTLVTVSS VL: SYELTQPLSVSVALGQTARITCSGDAIGEKYVYWYQQKPGQAPVLVIYDDNNRPSGIPERFSGSNSGNTATLTISRAQAGDEADYYCASYDLQQARWVFGGGTKLTVL , state its measured log10 of kd.
A: -1.68
